For each entry below, report its Hemmung der Synaptosomen-Aufnahme von Noradrenalin r.W. (relative Wirksamkeit) value.
Target: Synaptosomen-Aufnahme von Noradrenalin (Rattus norvegicus, UniProt Q63380)
Construct: Durch differentielle Zentrifugation wurden Synaptosomen erhalten; from tissue; host or cells: rat brain hippocampus synaptosomes
Sequence (Q63380 1-617): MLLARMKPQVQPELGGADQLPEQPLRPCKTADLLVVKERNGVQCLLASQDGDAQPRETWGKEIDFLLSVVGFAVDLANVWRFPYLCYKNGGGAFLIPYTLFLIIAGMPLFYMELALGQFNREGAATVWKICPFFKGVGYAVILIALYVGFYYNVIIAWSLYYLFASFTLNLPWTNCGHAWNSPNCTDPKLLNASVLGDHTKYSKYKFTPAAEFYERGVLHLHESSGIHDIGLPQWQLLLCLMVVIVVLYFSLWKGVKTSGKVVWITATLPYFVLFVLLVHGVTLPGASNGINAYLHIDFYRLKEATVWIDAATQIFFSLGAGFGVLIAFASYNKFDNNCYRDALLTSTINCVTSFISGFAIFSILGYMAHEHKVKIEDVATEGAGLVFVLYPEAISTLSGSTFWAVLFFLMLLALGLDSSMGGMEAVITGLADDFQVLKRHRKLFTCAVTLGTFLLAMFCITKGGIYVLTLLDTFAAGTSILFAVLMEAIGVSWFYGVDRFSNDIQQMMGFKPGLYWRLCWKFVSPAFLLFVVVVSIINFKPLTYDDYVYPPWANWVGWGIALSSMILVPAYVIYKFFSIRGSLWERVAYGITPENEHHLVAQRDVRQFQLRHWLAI
Assay: Inhibition of noradrenaline uptake in rat brain synaptosomes (hippocampus, 3H-noradrenaline)
Format: biochemical, Ratten
Settings: Quotient IC50 Referenzverbindung / IC50 Beispielverbindung
Lab note: jot down the number only; don't add units.

[in] Hello, please tell me recorded Hemmung der Synaptosomen-Aufnahme von Noradrenalin r.W. (relative Wirksamkeit) for this one: `Cc1ccc(-n2ccc(=N)cn2)cc1Cl`
[out] 2.1

[in] Tell me Hemmung der Synaptosomen-Aufnahme von Noradrenalin r.W. (relative Wirksamkeit) reported for `Br.Cc1ccc(-n2ccc(=N)cn2)cc1`
[out] 0.7

[in] Look up and state reported Hemmung der Synaptosomen-Aufnahme von Noradrenalin r.W. (relative Wirksamkeit) for `N=c1ccn(-c2ccc(Cl)c(Br)c2)nc1`
[out] 2.5

[in] Specify Hemmung der Synaptosomen-Aufnahme von Noradrenalin r.W. (relative Wirksamkeit) for `Cc1ccc(-n2ccc(=N)cn2)cc1Br` and stop.
[out] 1.2

[in] Query Hemmung der Synaptosomen-Aufnahme von Noradrenalin r.W. (relative Wirksamkeit) for `Cc1cc(-n2ccc(=N)cn2)ccc1Br`
[out] 3.1

[in] Item `Cc1cc(-n2ccc(=N)cn2)ccc1Cl` : provide Hemmung der Synaptosomen-Aufnahme von Noradrenalin r.W. (relative Wirksamkeit)
[out] 1.8

[in] Return the recorded Hemmung der Synaptosomen-Aufnahme von Noradrenalin r.W. (relative Wirksamkeit) value; entry: `N=c1ccn(-c2ccc(C(F)(F)F)cc2)nc1`
[out] 0.1

[in] Specify measured Hemmung der Synaptosomen-Aufnahme von Noradrenalin r.W. (relative Wirksamkeit) for `N=c1ccn(-c2ccc(Cl)c(Cl)c2)nc1` .
[out] 5.3

[in] Indicate the recorded Hemmung der Synaptosomen-Aufnahme von Noradrenalin r.W. (relative Wirksamkeit) value for this compound: `Cc1ccc(-n2ccc(=N)cn2)cc1F`
[out] 1.2

[in] Using the record for `CCc1ccc(-n2ccc(=N)cn2)cc1.Cl` , state its measured Hemmung der Synaptosomen-Aufnahme von Noradrenalin r.W. (relative Wirksamkeit).
[out] 0.1

[in] Query Hemmung der Synaptosomen-Aufnahme von Noradrenalin r.W. (relative Wirksamkeit) for `COc1cc(-n2ccc(=N)cn2)ccc1C.Cl`
[out] 0.3

###

Molecular target: Monoaminoxidase Typ B (Rattus norvegicus, UniProt P19643)
Construct: Die Bestimmung der Monoaminoxidase erfolgte in verdünntem Rattenhirnhomogenat; from tissue; host or cells: rat brain homogenate
Sequence (P19643 whole entry): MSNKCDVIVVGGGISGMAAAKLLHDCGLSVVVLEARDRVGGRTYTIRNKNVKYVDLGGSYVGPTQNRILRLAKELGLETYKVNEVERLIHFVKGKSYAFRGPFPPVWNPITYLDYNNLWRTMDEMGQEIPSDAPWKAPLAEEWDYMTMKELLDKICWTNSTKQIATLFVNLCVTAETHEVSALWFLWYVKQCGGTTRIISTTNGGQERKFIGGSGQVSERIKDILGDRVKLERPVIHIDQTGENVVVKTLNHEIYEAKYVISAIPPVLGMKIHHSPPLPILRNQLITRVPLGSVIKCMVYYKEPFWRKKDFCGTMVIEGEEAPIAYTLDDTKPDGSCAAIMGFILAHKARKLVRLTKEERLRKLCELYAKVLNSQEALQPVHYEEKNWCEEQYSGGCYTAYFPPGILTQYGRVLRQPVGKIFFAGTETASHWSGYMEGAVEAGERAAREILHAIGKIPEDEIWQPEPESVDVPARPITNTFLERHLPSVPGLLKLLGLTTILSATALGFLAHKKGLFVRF
Experiment: Inhibition of monoamine oxidase type B in rat brain homogenate (14C-phenylethylamine)
Type: biochemical, Ratten
Details: rat brain homogenate, 14C-Phenylethylamin, 20 min 37°C; read-out: Hemmung der Monoaminoxidase Typ B IC50
Consider the following compounds; for each one, report its IC50.
// note: answer is a bare numeric in nM

[in] // Input: N=c1ccn(-c2ccc(Br)cc2)nc1 [Beispiel 8] . Output its IC50 only.
[out] 10000

[in] State its IC50 for this compound: N=c1ccn(-c2ccc(Cl)c(Cl)c2)nc1 [Beispiel 1]
[out] 2600

[in] State its IC50 for this compound: N=c1ccn(-c2ccc(Cl)c(Br)c2)nc1 [Beispiel 16]
[out] 2700

[in] Please look at this compound and report its IC50: Cc1ccc(-n2ccc(=N)cn2)cc1Cl [Beispiel 42]
[out] 2000

[in] Annotate the compound Cc1cc(-n2ccc(=N)cn2)ccc1Br [Beispiel 46] with its measured IC50.
[out] 4000

[in] Give me measured IC50, please, for this compound: Cc1ccc(-n2ccc(=N)cn2)cc1Br [Beispiel 13]
[out] 1200

[in] Tell me its IC50 given N=c1ccn(-c2ccc(Br)c(Br)c2)nc1 [Beispiel 18] as the entry.
[out] 1900

[in] Return reported IC50. Input compound: N=c1ccn(-c2ccc(C(F)(F)F)c(Cl)c2)nc1 [Beispiel 12]
[out] 700

[in] Find the measured IC50 of Cc1cc(-n2ccc(=N)cn2)ccc1Cl [Beispiel 45] and report it.
[out] 5000

[in] Annotate the compound Cc1ccc(-n2ccc(=N)cn2)cc1F [Beispiel 11] with its measured IC50.
[out] 5100

[in] Let me know recorded IC50 for N=c1ccn(-c2ccc(Br)c(Cl)c2)nc1 [Beispiel 17] , thanks.
[out] 2600

[in] Query IC50 for N=c1ccn(-c2ccc(C(F)(F)F)cc2)nc1 [Beispiel 32]
[out] 4000
